METHOD: Bioavailability study: pharmacokinetics after single intravenous or oral dose in mouse
Type: in vivo
REPORTED CONDITIONS: male, CD-1, mouse, plasma, iv, 1 mg/kg, IV 1 mg/kg, plasma, individual animal, read-out: CLP (converted)

CHEMICAL STRING | OUTPUT UNIT | clearance
CO[C@@H]1CC[C@@H](CNc2ccc(S(=O)(=O)NC(=O)c3ccc(N4CCN5CC6=C(c7ccc(Cl)cc7)CC(C)(C)C[C@H]6OCCCOC[C@@H]5C4)cc3N3CCCOc4nc5[nH]ccc5cc43)cc2[N+](=O)[O-])OC1 | mL/min/kg | 1.05

* * *

METHOD: Bioavailability study: pharmacokinetics after single intravenous or oral dose in mouse
Type: in vivo
REPORTED CONDITIONS: male, CD-1, plasma, PO 1 mg/kg vs IV 1 mg/kg, mean, read-out: F (oral bioavailability)

CHEMICAL STRING | OUTPUT UNIT | bioavailability
CO[C@@H]1CC[C@@H](CNc2ccc(S(=O)(=O)NC(=O)c3ccc(N4CCN5CC6=C(c7ccc(Cl)cc7)CC(C)(C)C[C@H]6OCCCOC[C@@H]5C4)cc3N3CCCOc4nc5[nH]ccc5cc43)cc2[N+](=O)[O-])OC1 | % | 31
